# targetDesc: human CAR LBD (Homo sapiens, UniProt Q14994)
# Construct: C (151-349 aa) and N (103-150 aa) terminal parts of human CAR LBD; N (103-150 aa) terminal parts of human CAR LBD
# Sequence (Q14994 151-348 isoform Q14994-2 limits assumed): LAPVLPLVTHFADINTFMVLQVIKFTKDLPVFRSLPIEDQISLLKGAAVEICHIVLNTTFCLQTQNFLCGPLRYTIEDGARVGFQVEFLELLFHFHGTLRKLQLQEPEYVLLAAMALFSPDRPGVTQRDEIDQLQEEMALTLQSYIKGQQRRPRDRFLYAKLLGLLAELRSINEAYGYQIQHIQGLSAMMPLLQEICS
# Sequence (Q14994 103-150 limits assumed): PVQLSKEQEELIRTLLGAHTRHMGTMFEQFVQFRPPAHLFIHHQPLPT
# method: CAR LBD assembly assay (two hybrid luciferase reporter in HepG2 cells)
readoutKind: EC50 (nM)

Answered examples (3):
structurestring=CN(C)C(=O)c1cc(Cc2nnc(-c3c(-c4ccc(Cl)cc4)nc4ccccn34)s2)ccc1Cl targetdesc="human CAR LBD (Homo sapiens, UniProt Q14994)" testresult=300
structurestring=NC(=O)c1cc(Cn2cc(-c3c(-c4ccc(Cl)cc4)nc4cc(F)ccn34)nn2)ccc1Cl targetdesc="human CAR LBD (Homo sapiens, UniProt Q14994)" testresult=380
structurestring=CNC(=O)c1cc(Cc2nnc(-c3c(-c4ccc(Cl)cc4)nc4ccccn34)o2)ccc1Cl targetdesc="human CAR LBD (Homo sapiens, UniProt Q14994)" testresult=1000

I: CNC(=S)c1cc(Cc2nnc(-c3c(-c4ccc(Cl)cc4)nc4ccccn34)o2)ccc1Cl
II: NC(=O)c1cc(Cn2cc(-c3c(-c4ccc(Cl)cc4)nc4c(F)cccn34)nn2)ccc1Cl
input: Between item I and item II , which reported EC50 is smaller? Response format: the label of the selected entry.
output: I

###

# Tested on: HepG2 cells
# method: Cytotoxicity, cell viability (MTS) in HepG2
# Assay type: cell-based
# testSettings: Homo sapiens, 48-h treatment, no significant effect at 30 μM/L
Below: a set of entries, each annotated with reported IC50.

molecule="CN(C)C(=O)c1cc(Cc2nnc(-c3c(-c4ccc(Cl)cc4)nc4ccccn34)s2)ccc1Cl [Example 149]" readoutkind=IC50 testresult="> 30 µM"

We next turn to a different molecule, shown below.
input: Reported IC50, molecule NC(=O)c1cc(Cn2cc(-c3c(-c4ccc(Cl)cc4)nc4cc(F)ccn34)nn2)ccc1Cl [Example 93] : ____
output: > 30 µM

###

# targetDesc: human CYP1A2 (Homo sapiens, UniProt P05177)
# Sequence (P05177 whole entry): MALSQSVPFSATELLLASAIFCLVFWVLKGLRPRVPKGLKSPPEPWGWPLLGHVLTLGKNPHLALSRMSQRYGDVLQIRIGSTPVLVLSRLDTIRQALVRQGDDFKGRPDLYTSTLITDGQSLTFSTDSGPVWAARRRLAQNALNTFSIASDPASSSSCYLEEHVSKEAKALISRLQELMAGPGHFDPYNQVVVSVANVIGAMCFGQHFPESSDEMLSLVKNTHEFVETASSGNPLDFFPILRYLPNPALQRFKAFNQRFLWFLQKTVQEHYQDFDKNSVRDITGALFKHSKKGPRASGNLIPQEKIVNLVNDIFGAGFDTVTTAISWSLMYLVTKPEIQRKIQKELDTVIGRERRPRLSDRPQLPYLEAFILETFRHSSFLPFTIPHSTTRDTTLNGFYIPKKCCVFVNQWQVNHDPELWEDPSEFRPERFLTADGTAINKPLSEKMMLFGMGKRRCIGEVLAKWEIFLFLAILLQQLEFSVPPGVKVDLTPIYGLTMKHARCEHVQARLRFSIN
readoutKind: IC50

input: Reported IC50, compound `NC(=O)c1cc(Cn2cc(-c3c(-c4ccc(Cl)cc4)nc4cc(F)ccn34)nn2)ccc1Cl` : ____
output: > 10 µM

###

# method: Human plasma protein binding (micro-equilibrium dialysis)
# Format: in vitro ADME
# testSettings: at 1 μM/L
readoutKind: fraction unbound at 1 μM
Format: numeric value only, no unit, no commentary.

input: Reported fraction unbound at 1 μM, compound `NC(=O)c1cc(Cn2cc(-c3c(-c4ccc(Cl)cc4)nc4cc(F)ccn34)nn2)ccc1Cl` : ____
output: 0.01

###

# Tested on: CYP3A4, CYP1A2, CYP2C9, CYP2C19, CYP2C8, CYP2D6, CYP2B6 (panel)
# method: in vitro
# testSettings: both, human, pooled human liver microsomes
pIC50: −log10 of the molar value.
readoutKind: pIC50

input: Reported pIC50, molecule NC(=O)c1cc(Cn2cc(-c3c(-c4ccc(Cl)cc4)nc4cc(F)ccn34)nn2)ccc1Cl [Example 93] : ____
output: < 5.00

###

# targetDesc: human CYP3A4 (Homo sapiens)
# Sequence (P08684 whole entry): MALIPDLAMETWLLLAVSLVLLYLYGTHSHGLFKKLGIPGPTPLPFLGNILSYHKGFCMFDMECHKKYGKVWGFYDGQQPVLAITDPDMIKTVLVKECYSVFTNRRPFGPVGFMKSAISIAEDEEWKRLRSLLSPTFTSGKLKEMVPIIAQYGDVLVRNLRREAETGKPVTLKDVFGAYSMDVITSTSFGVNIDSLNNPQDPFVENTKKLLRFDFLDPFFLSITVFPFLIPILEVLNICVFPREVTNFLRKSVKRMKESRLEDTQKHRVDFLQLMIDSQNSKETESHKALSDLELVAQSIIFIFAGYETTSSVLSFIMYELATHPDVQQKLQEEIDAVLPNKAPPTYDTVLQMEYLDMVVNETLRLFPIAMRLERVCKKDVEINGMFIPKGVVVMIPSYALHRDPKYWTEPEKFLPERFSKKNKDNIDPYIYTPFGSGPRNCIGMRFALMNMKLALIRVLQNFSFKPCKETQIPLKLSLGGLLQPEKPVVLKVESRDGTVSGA
readoutKind: IC50

input: Reported IC50, molecule `NC(=O)c1cc(Cn2cc(-c3c(-c4ccc(Cl)cc4)nc4cc(F)ccn34)nn2)ccc1Cl` : ____
output: > 10 µM
